experiment: log P by potentiometric titration octanol/water (Sirius T3); log D7.4 calculated from pKa and log P; assay type: physicochemical; conditions: pH 7.4
Please use YES whenever logD is not below 0.01, and NO whenever it is.

O=C(O)c1ccccc1O [Compound 1, Salicylic acid, reference compound] | NO
COC(=O)c1cccc2oc(=O)[nH]c12 [Compound 13] | YES
CS(=O)(=O)Nc1ccccc1C(=O)O [Compound 2] | NO

Tell me whether logD is at least 0.01 here: CONC(=O)c1cccc2nn[nH]c12 [Compound 19]
YES

Tell me whether logD is at least 0.01 here: COC(=O)c1cccc2nn[nH]c12 [Compound 15]
YES

Tell me whether logD is at least 0.01 here: CONC(=O)c1ccccc1O [Compound 7]
YES

Tell me whether logD is at least 0.01 here: CONC(=O)c1ccccc1NS(C)(=O)=O [Compound 16]
NO

Tell me whether logD is at least 0.01 here: COC(=O)c1ccccc1O [Compound 6]
YES

Tell me whether logD is at least 0.01 here: Oc1ccccc1-c1nnn[nH]1 [Compound 8]
NO

Tell me whether logD is at least 0.01 here: O=C(O)c1cccc2oc(=O)[nH]c12 [Compound 3]
NO

Tell me whether logD is at least 0.01 here: O=C(O)c1cccc2nn[nH]c12 [Compound 5]
NO
